B1: Cold shock protein CspB, P41016 (parent)
chain: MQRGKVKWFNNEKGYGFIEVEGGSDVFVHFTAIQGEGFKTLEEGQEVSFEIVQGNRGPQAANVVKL

variants of: B1; conditions: Bacillus caldolyticus; pH 7; Thermal; CD; Na cacodylate/HCl 0.1 M; reversible: Yes; structure 1C9O; whole UniProt chain shown
The reader will find reported Tm values listed item by item below.
Give the value, in units of °C, as a plain number.

| mutation | reported metric | assay value |
| --- | --- | --- |
| E50K | Tm | 73.5 |
| E36K | Tm | 76 |
| E21K | Tm | 75.4 |

Could you now consider this next variant?
Inquiry: I would be grateful if you could share the reported Tm for N55K .
Reply text: 77.7
